Test: Particle size detection of LNP (Brookhaven NanoBrook Omni, DLS)
Format: physicochemical
Settings: LNPs after coating mRNA (luciferase)
Protocol: Step 1. Preparation of a lipid solution and a nucleic acid solution: unless otherwise specified, all aqueous solutions involved in examples were prepared from deionized water without nucleases. […]
PDI below 0.2 gives Not satisfied; PDI at or above it gives Satisfied.

>  <Compound>
CCCCC/C=C\C/C=C\CCCCCCCC(=O)N(CCCN(C)C)C(C)C(=O)NCCCCCCCC(=O)OC(CCCCCCCC)CCCCCCCC (stereo not shown)

>  <Class Label>
Not satisfied

$$$$
>  <Compound>
CCCCCCCC/C=C\CCCCCCCCNC(=O)C(N(CCCN(C)C)C(=O)OCCCCCCCCCCCC)C(C)(C)C (stereo not shown)

>  <Class Label>
Not satisfied

$$$$

# input Hi, just wondering whether CCCCCCCCC(CC)OC(=O)CCCCCCC(=O)N(CCCN(C)C)C(C(=O)NCCCCCCCC(=O)OC(CCCCCCCC)CCCCCCCC)C(C)(C)C (stereo not shown) shows PDI of 0.2 or higher.
# output Satisfied

# input Also CCCCC/C=C\C/C=C\CCCCCCCC(=O)N(CCN(C)CCO)C(C(=O)NCCCCCCCCCCCCCC)C(C)(C)C (stereo not shown) , if possible.
# output Not satisfied

# input Also CCCCCCCCC(CC)OC(=O)CCCCCCCNC(=O)C(N(CCCN(C)C)C(=O)CCCCCCCCCC(=O)OC(CCCCCC)CCCCCC)C(C)(C)C (stereo not shown) , if possible.
# output Not satisfied

# input Also CCCCCCCC/C=C\CCCCCCCCNC(=O)C(N(CCCN(C)C)C(=O)CCCCCCC/C=C\C[C@H](O)CCCCCC)C(C)(C)C (stereo partly shown) , if possible.
# output Satisfied

# input Also CCCCC/C=C\C/C=C\CCCCCCCC(=O)N(CCCN(C)C)C(C(=O)NCCCCCCCC(=O)OC(CCCCCCCC)CCCCCCCC)C(C)C (stereo not shown) , if possible.
# output Satisfied
